The measurements presented in this section are drawn from patent US10087165B2.

// reported MIC (M. tuberculosis) D94G per item
System: M. tuberculosis H37Rv GyrA D94G
Format: cell-based

molecule	MIC (M. tuberculosis) D94G
O=C(O)c1cn(C2CC2)c2cc(N3CCNCC3)c(F)cc2c1=O [Ciprofloxacin, ciprofloxacin, reference compound]	≥24 µM
CCCCCCCCCCCCCCCCN1CCN(c2c(F)cc3c(=O)c(C(=O)O)cn(C4CC4)c3c2OC)CC1	>13.7 µM
CCCCCN1CCN(c2c(F)cc3c(=O)c(C(=O)O)cn(C4CC4)c3c2OC)CC1	>18.5 µM
CCCCCCCCCCN1CCN(c2cc3c(cc2F)c(=O)c(C(=O)O)cn3C2CC2)CC1	≥4.8 µM
